- System: human umbilical vein endothelial cells (HUVECs)
- method_notes: Migration scratch assay
- Type: cell-based
- Design: key: ++: open; +: partly open; 0: closed
- experimental_parameters: 1000 nM, 24 h
measured_endpoint: Wound area

- NC1CCC(Nc2nc(NCc3ccc(-c4ccco4)cc3)c3ncn(C4CCCC4)c3n2)CC1 (stereo not drawn) [BP4]: ++
- CC[C@H](CO)Nc1nc(NCc2ccccc2)c2ncn(C(C)C)c2n1 [roscovitine, reference compound]: 0
- Cn1cnc2c(NCc3ccccc3)nc(NCCO)nc21 [olomoucine, reference compound]: 0
- NC1CCC(Nc2nc(NCc3ccc(-n4cccn4)cc3)c3ncn(C4CCCC4)c3n2)CC1 (stereo not drawn) [BP24]: ++
- NC1CCC(Nc2nc(NCc3ccc(-c4ccco4)nc3)c3ncn(C4CCCC4)c3n2)CC1 (stereo not drawn) [BP14]: ++
- NC1CCC(Nc2nc(NCc3ccc(-c4ccsc4)nc3)c3ncn(C4CCCC4)c3n2)CC1 (stereo not drawn) [BP35]: ++
- CCC(CO)Nc1nc(NCc2ccc(-c3ccccn3)cc2)c2ncn(C(C)C)c2n1 (stereo not drawn) [CR8, reference compound]: +
- NC1CCC(Nc2nc(NCc3ccc(-c4cccc(F)c4)nc3)c3ncn(C4CCCC4)c3n2)CC1 (stereo not drawn) [BP19]: ++
- NC1CCC(Nc2nc(NCc3ccc(-c4ccccc4O)nc3)c3ncn(C4CCCC4)c3n2)CC1 (stereo not drawn) [BP20]: ++
- NC1CCC(Nc2nc(NCc3ccc(-c4cccs4)nc3)c3ncn(C4CCCC4)c3n2)CC1 (stereo not drawn) [BP30]: ++
- COc1ccccc1-c1ccc(CNc2nc(NC3CCC(N)CC3)nc3c2ncn3C2CCCC2)cn1 (stereo not drawn) [BP18]: ++
- NC1CCC(Nc2nc(NCc3ccc(-c4ccoc4)nc3)c3ncn(C4CCCC4)c3n2)CC1 (stereo not drawn) [BP36]: ++

The reported numbers originate from patent US20150368248A1.
